Experiment: Clinical use in treatment protocol of the BALD syndrome
Format: in vivo
Conditions: patients with BALD syndrome; core treatment steps (calcium channel blocker, anti-viral/anti-fungal, chelating agent)
measurement kind: clinical outcome in treatment of the BALD syndrome

Nc1nc2c(ncn2COCCO)c(=O)[nH]1 [Acyclovir, acycloguanosine]    Clinical success
O=C([O-])CN(CCN(CC(=O)[O-])CC(=O)O)CC(=O)O.[Na+].[Na+] [EDTA, edate disodium]    Clinical success
